Every entry's value here was drawn from patent US20210221874A1.

- measuredTarget: T1, anthrax protective antigen, wild type PA83 (Bacillus anthracis, UniProt P13423 30-764)
- T1 construct: mature
- T1 sequence (P13423 30-764): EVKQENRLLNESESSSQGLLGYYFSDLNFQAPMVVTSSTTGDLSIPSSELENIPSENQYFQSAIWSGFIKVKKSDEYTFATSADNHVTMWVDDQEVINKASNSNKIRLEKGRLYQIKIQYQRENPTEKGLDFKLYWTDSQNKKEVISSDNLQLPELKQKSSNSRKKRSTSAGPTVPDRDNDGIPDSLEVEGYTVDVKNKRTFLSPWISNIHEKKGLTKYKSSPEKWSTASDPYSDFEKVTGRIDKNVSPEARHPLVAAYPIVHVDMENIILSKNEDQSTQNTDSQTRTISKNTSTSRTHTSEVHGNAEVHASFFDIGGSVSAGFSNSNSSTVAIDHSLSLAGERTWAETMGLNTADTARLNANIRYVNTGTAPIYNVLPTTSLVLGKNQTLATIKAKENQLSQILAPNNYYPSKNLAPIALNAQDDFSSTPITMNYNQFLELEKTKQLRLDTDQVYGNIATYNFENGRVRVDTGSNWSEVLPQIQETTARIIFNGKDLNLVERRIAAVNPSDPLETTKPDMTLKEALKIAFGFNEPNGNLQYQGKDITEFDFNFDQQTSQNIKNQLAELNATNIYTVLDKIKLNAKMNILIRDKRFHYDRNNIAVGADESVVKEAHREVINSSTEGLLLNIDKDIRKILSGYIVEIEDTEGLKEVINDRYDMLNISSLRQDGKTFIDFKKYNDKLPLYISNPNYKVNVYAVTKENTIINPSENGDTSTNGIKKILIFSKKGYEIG
- assayName: SPR (Biacore 3000)
pKd: −log10 of the molar value.
measuredMetric: pKd

[
  {
    "binder": "JKH-D12 (VHH) VHH: QVQLVETGGGLVQAGGTLRLSCAASGRTFTSYYIGWFRQEPGKEREFVASIGWTDDNTYYADSVKGRFTISRDNAETTAYLQMSGLKPEDTAVYYCAADYGSGIRAWYNWIYWGQGTQVTVSS",
    "measurement": 9.00
  },
  {
    "binder": "JKO-A4 (VHH) VHH: QVQLAESGGGSVQPGGSLRLSCAASGFTFSSYTMSWVRQAPGKGIEWVSDINGGGDRTDYADSVKGRFTISRDNARNTLYLQMNSLQPEDTAVYYCAKDLSYVSGTYFANDWGQGTQVTVSS",
    "measurement": 8.00
  },
  {
    "binder": "JKH-C7 (VHH, also called JHK-C7) VHH: VQLVESGGGGLVQAGGSLRLSCAASGRTFSGYAMGWFRQAPGKEREFVADISWSGHNTYYGDSVKGRFTISRDTAKNTVYLQMNSLKPEDTAVYYCAAEGARTHLSDSYYFPGLWAEPPVGYWGQGTQVTVSS",
    "measurement": 8.15
  },
  {
    "binder": "JKM-A6 (VHH) VHH: QLQLAETGGGLVQPGGSLRLSCAASGATLDTYIITWFRQAPGKEREAVSCINRSGSTTYSDSVKGRFTISRDNAQKTVYLQMNSLNPEDTAIYYCAADASYRTCGGSWWNWAYWGQGTQVTVSS",
    "measurement": 7.70
  }
]
